# study.target: Histone Deacetylase 4 (HDAC4) catalytic domain (Homo sapiens (Human))
# Sequence (P56524 648-1032): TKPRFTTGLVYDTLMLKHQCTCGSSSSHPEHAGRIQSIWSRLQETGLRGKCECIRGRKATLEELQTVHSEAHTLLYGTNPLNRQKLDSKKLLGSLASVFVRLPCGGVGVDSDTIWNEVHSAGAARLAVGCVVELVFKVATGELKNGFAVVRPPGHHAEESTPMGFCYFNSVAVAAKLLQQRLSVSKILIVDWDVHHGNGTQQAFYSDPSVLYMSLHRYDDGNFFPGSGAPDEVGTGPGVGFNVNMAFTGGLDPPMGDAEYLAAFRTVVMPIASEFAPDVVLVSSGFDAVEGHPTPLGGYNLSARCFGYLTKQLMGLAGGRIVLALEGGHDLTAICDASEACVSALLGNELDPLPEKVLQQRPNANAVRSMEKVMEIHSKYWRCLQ
readout.label: IC50 (nM)

Worked cases, answers included:
molecule: Cc1c(F)cccc1C1(C(=O)NO)CCc2c(cnn2-c2ccccc2)C1 (single isomer, unassigned)
unit.descriptor: nM
reported.result: 820
//
molecule: Cc1c(F)cccc1[C@]1(C(=O)NO)Cc2cnn(-c3ccc(F)cc3F)c2C1
unit.descriptor: nM
reported.result: 29
//
molecule: Cc1c(F)cccc1[C@]1(C(=O)NO)Cc2cnc(-c3ccccc3Cl)nc2C1
unit.descriptor: nM
reported.result: 156
//
molecule: Cc1c(F)cccc1[C@]1(C(=O)NO)Cc2cnn(Cc3ccccc3)c2C1
unit.descriptor: nM
reported.result: 48
//
molecule: Cc1c(F)cccc1[C@]1(C(=O)NO)CCc2nn(Cc3ccccc3)cc21
unit.descriptor: nM
reported.result: 820

A: Cc1cnccc1-n1cc2c(n1)C[C@](C(=O)NO)(c1cccc(F)c1C)C2
B: Cc1c(F)cccc1C1(C(=O)NO)CCc2ncsc2C1 (centres unmarked)
C: Cc1c(F)cccc1[C@]1(C(=O)NO)Cc2nc(-c3ccnn3C)sc2C1
(Q) List items by IC50 in falling order. Output the labels ranked as instructed.
(A) B, C, A

----------
# System: cellular histone deacetylase enzymatic activity in Jurkat E6-1 cells
# experiment.summary: Inhibition of cellular HDAC activity, Boc-Lys(Tfa)-AMC substrate (Cell Lys-TFA)
# Format: cell-based
# experimental.parameters: Homo sapiens, Jurkat E6.1, Lys-TFA substrate
pIC50: −log10 of the molar value.
readout.label: pIC50

a: Cc1c(F)cccc1[C@]1(C(=O)NO)Cc2cnn(-c3ccc(F)cc3Cl)c2C1 [Example 90]
b: Cc1c(F)cccc1C1(C(=O)NO)Cc2nc(Cc3cccc(C(F)(F)F)c3)sc2C1 (centres unmarked) [Example 63]
(Q) Dear colleague, could you let me know whether a or b has the lower recorded pIC50? Thanks. Answer by stating the label of the chosen item.
(A) b

1: Cc1c(F)cccc1[C@]1(C(=O)NO)Cc2cn(-c3ncccc3F)nc2C1 [Example 29]
2: Cc1cccc(-n2cc3c(n2)C[C@](C(=O)NO)(c2cccc(F)c2C)C3)c1 [Example 25]
3: Cc1c(F)cccc1[C@]1(C(=O)NO)CCc2nn(Cc3ccccc3F)cc21 [Example 95]
(Q) Hey, can you sort those compounds up there by pIC50, smallest first? Output the labels ranked as instructed.
(A) 3, 2, 1
(3: 5.53, 2: 6.80, 1: 7.16)

a: Cc1c(F)cccc1[C@]1(C(=O)NO)Cc2cn(-c3ccc(OC(F)F)cc3)nc2C1 [Example 21]
b: Cc1c(F)cccc1[C@]1(C(=O)NO)CCc2nc(C3CC3)sc21 [Example 72]
(Q) Dear colleague, could you let me know whether a or b has the lower recorded pIC50? Thanks. Answer by stating the label of the chosen item.
(A) b
(b: 6.10, a: 6.76)

----------
# Test system: cellular histone deacetylase enzymatic activity in Jurkat E6-1 cells
# experiment.summary: Inhibition of cellular HDAC activity, Boc-Lys(Tfa)-AMC substrate (Cell Lys-TFA)
# Assay type: cell-based
# experimental.parameters: Homo sapiens, Jurkat E6.1, Lys-TFA substrate
# Description: The potency of the compounds is quantified by measuring the cellular histone deacetylase enzymatic activity using the fluorogenic substrate, Boc-Lys(Tfa)-AMC. After penetration in Jurkat E6-1 cells, the substrate is deacetylated to Boc-Lys-AMC. After cell lysis and cleavage by trypsin, the fluorophore AMC is released from the deacetylated substrate only. The fluorescence of the sample is directly related to the histone deacetylase activity in the sample. […]
readout.label: IC50 (nM)

Worked cases, answers included:
molecule: Cc1c(F)cccc1[C@]1(C(=O)NO)Cc2cnn(-c3ccc(F)cn3)c2C1
IC50 (nM): 69
//
molecule: Cc1c(F)cccc1C1(C(=O)NO)CCc2nc(C3CC3)ncc2C1 (stereo not shown)
IC50 (nM): 760
//
molecule: Cc1c(F)cccc1[C@]1(C(=O)NO)Cc2cnn(-c3ccccc3Cl)c2C1
IC50 (nM): 13
//
molecule: Cc1cccc(C)c1-n1ncc2c1C[C@](C(=O)NO)(c1cccc(F)c1C)C2
IC50 (nM): 12
//
molecule: Cc1c(F)cccc1[C@]1(C(=O)NO)CCc2nn(Cc3ccccc3)cc21
IC50 (nM): 2780
//
molecule: Cc1c(F)cccc1[C@@]1(C(=O)NO)Cc2cnn(-c3ccccc3)c2C1
IC50 (nM): 1700
//
molecule: Cc1c(F)cccc1[C@]1(C(=O)NO)Cc2nc(-c3ccc(F)cc3)sc2C1
IC50 (nM): 290
//
molecule: Cc1c(F)cccc1[C@]1(C(=O)NO)Cc2cnn(C3CCCC3)c2C1
IC50 (nM): 163

1: Cc1c(F)cccc1[C@@]1(C(=O)NO)Cc2cnc(C3CC3)nc2C1
2: O=C(NO)C1(c2ccccc2)CCc2cn(CC(F)(F)F)nc2CC1 (stereo not shown)
(Q) // compare measured IC50, left 1 , right 2 , return larger Answer by stating the label of the chosen item.
(A) 2
